Molecular target: Matrix metalloproteinase-9 (Homo sapiens, UniProt P14780)
Sequence (P14780 whole entry): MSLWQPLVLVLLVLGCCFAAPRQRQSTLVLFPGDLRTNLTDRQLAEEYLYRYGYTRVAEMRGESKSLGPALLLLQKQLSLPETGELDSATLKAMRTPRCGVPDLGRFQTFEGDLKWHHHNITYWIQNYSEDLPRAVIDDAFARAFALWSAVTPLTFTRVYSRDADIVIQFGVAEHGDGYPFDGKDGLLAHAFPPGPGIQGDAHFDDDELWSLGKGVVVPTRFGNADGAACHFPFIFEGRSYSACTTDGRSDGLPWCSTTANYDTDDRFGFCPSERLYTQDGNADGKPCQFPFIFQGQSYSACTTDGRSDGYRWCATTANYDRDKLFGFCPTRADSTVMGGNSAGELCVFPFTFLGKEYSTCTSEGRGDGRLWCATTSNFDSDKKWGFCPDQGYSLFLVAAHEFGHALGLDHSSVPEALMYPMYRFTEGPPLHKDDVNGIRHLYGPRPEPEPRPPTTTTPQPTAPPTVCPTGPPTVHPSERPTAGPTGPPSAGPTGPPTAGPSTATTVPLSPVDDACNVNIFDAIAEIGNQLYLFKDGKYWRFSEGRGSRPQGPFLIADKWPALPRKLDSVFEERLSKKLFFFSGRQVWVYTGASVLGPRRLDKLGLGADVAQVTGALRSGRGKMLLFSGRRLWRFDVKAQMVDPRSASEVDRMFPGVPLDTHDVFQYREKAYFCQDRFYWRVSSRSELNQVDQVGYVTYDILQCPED
measured_property: Ki (nM)
One number for each entry, in nM.

Ask | Reported Ki, compound CCCCCCC(CC(=O)O)S(=O)(=O)N[C@@H](Cc1ccc(OC)cc1)C(=O)NC (stereo partly specified) : ____
Reply | 290

----------
Target: 72 kDa type IV collagenase (Homo sapiens, UniProt P08253)
Sequence (P08253 whole entry): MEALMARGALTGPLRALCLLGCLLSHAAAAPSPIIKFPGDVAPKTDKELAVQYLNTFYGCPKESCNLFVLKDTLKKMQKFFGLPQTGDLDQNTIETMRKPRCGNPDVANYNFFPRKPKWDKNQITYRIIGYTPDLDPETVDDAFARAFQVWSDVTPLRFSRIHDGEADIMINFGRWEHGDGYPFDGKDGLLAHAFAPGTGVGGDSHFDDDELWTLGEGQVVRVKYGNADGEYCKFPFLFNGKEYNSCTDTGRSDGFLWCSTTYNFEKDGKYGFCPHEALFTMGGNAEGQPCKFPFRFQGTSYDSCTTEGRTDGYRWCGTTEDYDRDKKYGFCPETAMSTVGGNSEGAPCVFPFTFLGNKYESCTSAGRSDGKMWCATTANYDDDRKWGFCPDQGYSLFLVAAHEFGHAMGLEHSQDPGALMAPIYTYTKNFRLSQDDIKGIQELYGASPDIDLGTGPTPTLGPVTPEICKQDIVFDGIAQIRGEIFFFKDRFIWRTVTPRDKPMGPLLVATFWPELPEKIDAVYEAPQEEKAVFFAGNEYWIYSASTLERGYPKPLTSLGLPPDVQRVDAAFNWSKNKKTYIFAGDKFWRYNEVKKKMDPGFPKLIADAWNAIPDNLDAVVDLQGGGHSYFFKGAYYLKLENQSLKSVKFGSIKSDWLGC
Experiment: Inhibition of Matrix metalloprotease-2 (MMP-2)
measured_property: pKi
Numbers only, as −log10 of the molar value.

Examples with their reported pKi follow.
CNC(=O)[C@H](Cc1ccc(OC)cc1)NS(=O)(=O)C(CCc1ccccc1)CC(=O)NO (stereo partly drawn) : 6.26
CCCCCCC(CC(=O)O)S(=O)(=O)N[C@@H](Cc1ccc(OC)cc1)C(=O)NC (stereo partly drawn) : 5.89

Now consider a different compound.
Ask | Reported pKi, compound CNC(=O)[C@H](Cc1ccc(OC)cc1)NS(=O)(=O)C(CC(=O)O)CC(C)C (stereo partly drawn) : ____
Reply | 5.52
